- Test system: A375 (BRAF-V600E) 3D spheroids
- experiment-description: 3D spheroid formation assay (alamarBlue), A375
- Type: cell-based
- assay-context: Homo sapiens, A-375, 72 h, A375 3D spheroids, serum free, 3 days treatment; replicates N1, N2
reported-endpoint: pIC50
On this scale, pIC50 is minus log10 of a concentration expressed in M (mol/L).

## Task Can you look up pIC50 on A375 (BRAF-V600E) 3D spheroids for Clc1ccc(C(c2ccc(Cl)cc2)n2cc[n+](CC(OCc3ccc(Cl)cc3Cl)c3ccc(Cl)cc3Cl)c2)cc1 (stereo not shown) ?
## Result 5.96

## Task Form field - read-out: pIC50; system: A375 (BRAF-V600E) 3D spheroids; submitted item: "O=S(=O)(N[C@@H]1CCC[C@H](N2c3ccccc3Oc3ccccc32)[C@H]1O)c1ccc(OC(F)(F)F)cc1"
## Result 5.82

## Task Recall the recorded pIC50 for "CN1CCN(CCCN2c3ccccc3Sc3ccc(C(F)(F)F)cc32)CC1" with A375 (BRAF-V600E) 3D spheroids and state it.
## Result 6.60

###

- Tested on: H-RasG12V (Rluc8-/GFP2-tagged) in HEK-293 EBNA cells
- experiment-description: H-RasG12V nanoclustering-BRET assay
- Type: cell-based
- assay-context: compounds 20 μM, FTI-277 1 μM, OphA 2.5 μM, 24 h; mean
Field: H-RasG12V BRET. Provide a value for each of the compounds that follow.
Reply with just the number.

## Task # returns recorded H-RasG12V BRET (system: H-RasG12V (Rluc8-/GFP2-tagged) in HEK-293 EBNA cells) for Clc1ccc(C(c2ccc(Cl)cc2)n2cc[n+](CC(OCc3ccc(Cl)cc3Cl)c3ccc(Cl)cc3Cl)c2)cc1 (stereo not drawn)
## Result 67.54

## Task What measured H-RasG12V BRET is associated with "CC(C)=C[C@H]1C[C@H](C)[C@]2(CC[C@]3(C)C[C@H]4[C@H](C(=O)C[C@@]4(C)O)/C(C=O)=C\C[C@H]32)O1" on H-RasG12V (Rluc8-/GFP2-tagged) in HEK-293 EBNA cells?
## Result 87.26

## Task // lookup H-RasG12V BRET | system=H-RasG12V (Rluc8-/GFP2-tagged) in HEK-293 EBNA cells | key= "FC(F)(F)c1ccc2c(c1)N(CCCN1CCN(CCCl)CC1)c1ccccc1S2"
## Result 65.64

## Task Test system H-RasG12V (Rluc8-/GFP2-tagged) in HEK-293 EBNA cells; read-out H-RasG12V BRET; what value for "OCCN1CCN(CCCN2c3ccccc3Sc3ccc(C(F)(F)F)cc32)CC1" ?
## Result 109.85

## Task What value of H-RasG12V BRET on H-RasG12V (Rluc8-/GFP2-tagged) in HEK-293 EBNA cells does "O=S(=O)(N[C@@H]1CCC[C@H](N2c3ccccc3Oc3ccccc32)[C@H]1O)c1ccc(OC(F)(F)F)cc1" have?
## Result 100.52

## Task Query H-RasG12V BRET on H-RasG12V (Rluc8-/GFP2-tagged) in HEK-293 EBNA cells for "COC(=O)[C@H](CCSC)NC(=O)c1ccc(NC[C@@H](N)CS)cc1-c1ccccc1"
## Result 57.47

###

- System: pERK/ERK in MIA PaCa-2 cells
- experiment-description: Western blot of MAPK signaling output (pERK/ERK)
- Format: cell-based
- assay-context: MIA PaCa-2 + EGF; same treatments; mean
reported-endpoint: normalized pERK/ERK ratio % (%)
Please state the figure in %; there is no need to write the unit.

## Task State the recorded normalized pERK/ERK ratio % for this entry: CC(=O)Nc1cccc(-n2c(=O)n(C3CC3)c(=O)c3c(Nc4ccc(I)cc4F)n(C)c(=O)c(C)c32)c1 [trametinib]
## Result 20.34

## Task Value lookup for normalized pERK/ERK ratio %; key = FC(F)(F)c1ccc2c(c1)N(CCCN1CCN(CCCl)CC1)c1ccccc1S2 [fluphenazine mustard]
## Result 40

## Task Bench note: what normalized pERK/ERK ratio % did O=S(=O)(N[C@@H]1CCC[C@H](N2c3ccccc3Oc3ccccc32)[C@H]1O)c1ccc(OC(F)(F)F)cc1 [DT-061] show?
## Result 73.35

## Task Param item = C=CC(=O)N1CCN(c2nc(=O)n(-c3c(C)ccnc3C(C)C)c3nc(-c4c(O)cccc4F)c(F)cc23)[C@@H](C)C1 [AMG-510] ; retrieve measured normalized pERK/ERK ratio %.
## Result 28.96

###

- Tested on: A375 (BRAF-V600E) 3D spheroids
- experiment-description: 3D spheroid formation assay (alamarBlue), A375
- Assay type: cell-based
- assay-context: Homo sapiens, A-375, A375 3D spheroids; Mean, n = 2
Assign IC50 to each entry below.
Field format: number, assumed nM, no unit text.

## Task IC50 lookup needed for "O=S(=O)(N[C@@H]1CCC[C@H](N2c3ccccc3Oc3ccccc32)[C@H]1O)c1ccc(OC(F)(F)F)cc1" , thanks.
## Result 2100

## Task So what's the measured IC50 for this one? "CN1CCN(CCCN2c3ccccc3Sc3ccc(C(F)(F)F)cc32)CC1"
## Result 310

## Task Name the reported IC50 value associated with the compound Clc1ccc(C(c2ccc(Cl)cc2)n2cc[n+](CC(OCc3ccc(Cl)cc3Cl)c3ccc(Cl)cc3Cl)c2)cc1 (stereo not shown)
## Result 1310
